Target: T1, MipZ L237A (Caulobacter crescentus, UniProt Q9A6C9 1-278, L237A)
T1 sequence: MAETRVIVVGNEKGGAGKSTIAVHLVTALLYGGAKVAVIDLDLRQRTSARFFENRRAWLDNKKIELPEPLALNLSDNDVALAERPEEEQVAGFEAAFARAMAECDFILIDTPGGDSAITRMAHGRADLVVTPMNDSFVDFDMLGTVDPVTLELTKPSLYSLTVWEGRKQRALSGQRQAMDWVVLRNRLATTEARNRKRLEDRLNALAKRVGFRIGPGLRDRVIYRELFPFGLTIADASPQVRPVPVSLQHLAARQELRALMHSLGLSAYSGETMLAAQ
Assay: MST; low-affinity group, KD >> 10 uM; EMSA: 10 mM HEPES/NaOH pH 7.2, 150 mM NaCl, 10 mM MgCl2, 0.05% Tween 20, 0.46 mM ATPgS, room temp; BLI: 50 mM HEPES/NaOH pH 7.2, 50 mM NaCl, 5 mM MgCl2, 0.1 mM
Details: protein: recombinant; tags: C-terminal His6 (pET21a); chain copies: 2; label: Cy3 (5') on strand 1; blunt
pKd: −log10 of the molar value.
Endpoint: pKd

QUERY: Please look up its pKd: rand-Cy3/rand-rev 26 bp (dsDNA) DNA 1: GAGGCAGACTAGATCTTCTAGTTCGG DNA 2: CCGAACTAGAAGATCTAGTCTGCCTC
RESULT: < 5.00
